Provide the reported OSMOTIC PRESSURE (atm) of each item.
- protocol.notes: Osmotic pressure of saturated solutions of osmotically effective compounds and mixtures (vapor pressure osmometer)
- Assay type: physicochemical
- condition.label: saturated solution in water at 37° C.; Model 302B Vapor Pressure Osmometer
I only need the number, in atm, no unit after it.

Consider the molecule "O=C(CO)[C@@H](O)[C@H](O)[C@H](O)CO" and give its measured OSMOTIC PRESSURE (atm). 355

Consider the molecule O=P([O-])([O-])O.[Na+].[Na+] [Sodium Phosphate Dibasic-Anhydrous] and give its measured OSMOTIC PRESSURE (atm). 29

Consider the molecule O.O.O.O.O.O.O.O.O.O.O.O.O=P([O-])([O-])[O-].[Na+].[Na+].[Na+] [Sodium Phosphate Tribasic-12H20] and give its measured OSMOTIC PRESSURE (atm). 36

Consider the molecule [Cl-].[Na+] [Sodium Chloride] and give its measured OSMOTIC PRESSURE (atm). 356

Consider the molecule [Cl-].[K+] [Potassium Chloride] and give its measured OSMOTIC PRESSURE (atm). 245

Consider the molecule O.O=P([O-])(O)O.[Na+] [Sodium Phosphate Monobasic-H20] and give its measured OSMOTIC PRESSURE (atm). 28

Consider the molecule O.O.O.O.O.O.O.O=P([O-])([O-])O.[Na+].[Na+] [Sodium Phosphate Dibasic-7H20] and give its measured OSMOTIC PRESSURE (atm). 31

Consider the molecule O=S(=O)([O-])[O-].[K+].[K+] [Potassium Sulfate] and give its measured OSMOTIC PRESSURE (atm). 39

Consider the molecule O.O.O.O.O.O.O.O.O.O.O.O.O=P([O-])([O-])O.[Na+].[Na+] [Sodium Phosphate Dibasic-12H20] and give its measured OSMOTIC PRESSURE (atm). 31

Consider the molecule "OC[C@H]1O[C@@](CO)(O[C@H]2O[C@H](CO)[C@@H](O)[C@H](O)[C@H]2O)[C@@H](O)[C@@H]1O" and give its measured OSMOTIC PRESSURE (atm). 150

Consider the molecule "OC[C@@H](O)[C@@H](O)[C@H](O)[C@H](O)CO" and give its measured OSMOTIC PRESSURE (atm). 38

The reported numbers originate from patent US20070207204A1.
